assay: small-molecule microarray binders of probe aWnt5a, primary screen, biochemical, biotinylated probe, 635/667 nm fluorescence (AID 1113); conditions: higher = more signal;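 note: score merges 667 nm fluorescence intensity with signal-to-noise per printed feature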
assay endpoint: composite z-score
# output: bare number, no unit

{"compound": "O=C(CCCCCCC(=O)Nc1ccccc1)N/N=C/c1ccccc1", "composite z-score": -0.18}
{"compound": "COC(=O)[C@]1(CCS(=O)(=O)c2ccccc2)N=C(c2ccc(OCCCO)cc2)O[C@@H]1c1ccccc1CN=[N+]=[N-]", "composite z-score": 0.0785}

Request: Requested read-out: composite z-score. Entry: `CCOC(=O)C[C@H]1[C@H](OC(=O)c2ccccc2-c2ccccc2)[C@@H](NC(=O)c2ccc3ccccc3n2)c2cc(OCCCO)ccc2N1C(=O)c1ccc2ccccc2n1`
Response: -0.174

###

compounds and their reported composite z-score
experiment: compound binding in COS7 lysate, probe aLAP1, primary screen, cell lysate, small-molecule microarray (AID 1124); settings: probe aLAP1, fluorescence, higher = more signal;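 note: lysate comes from COS7 cells expressing LAP1 and is applied at 0.3 µg/mL; score merges spot fluorescence near 667 nm with signal-to-noise over triplicate slides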
# output: bare number, no unit

{"compound": "C=C(C(=O)CC[C@H](OC(=O)c1cccnc1)c1ccc(CO)o1)C(C)C", "composite z-score": 0.309}
{"compound": "C=CCN1C(=O)[C@@]2(O[C@@H](CCO)[C@H]([Si](C)(C)c3ccc(OC)cc3)[C@H]2C)c2cc(N3C(=O)c4ccccc4Oc4ccccc43)ccc21", "composite z-score": 0.478}
{"compound": "CC(C)N1CC=CC23O[C@@H]4C=CCOC(=O)[C@@H]4[C@H]2C(=O)N(C(C)CO)[C@@H]3C1=O (stereo not given in full)", "composite z-score": 1.06}
{"compound": "CCOC(=CC(=O)OC)CC(O)c1cccc(Cl)c1 (stereo not given)", "composite z-score": 0.49}
{"compound": "C=C1C2CC3C(=C4C(CO[C@@H]4[C@H]4CCCN4S(=O)(=O)c4ccccc4[N+](=O)[O-])C4C(=O)N(C)C(=O)C34)CC2C(=O)N1C (stereo not given in full)", "composite z-score": -0.0918}
{"compound": "COc1ccc(C(O)C2C=CC3C(=O)N(c4ccccc4)C(=O)C3N2Nc2ccccc2)cc1OCc1ccccc1 (stereo not given)", "composite z-score": 0.0392}
{"compound": "COC(=O)C[C@H]1O[C@]2(C(=O)N(C)c3ccccc32)[C@@H](C)[C@@H]1[Si](C)(C)c1ccc(C)cc1", "composite z-score": 0.218}
{"compound": "C[C@]1(C(=O)NC2CC2)c2ccccc2C(=O)N(Cc2ccc(OC(F)(F)F)cc2)[C@H]1c1ccc(CO)cc1", "composite z-score": 0.0915}
{"compound": "CCOC(=O)C1=C[C@@H](c2ccccc2)N(S(=O)(=O)c2ccc(C)cc2)[C@H]1c1cccc(Cl)c1", "composite z-score": 0.882}
{"compound": "Cc1ccc(S[C@]2(C(=O)NCC(F)(F)F)CC(=O)N(Cc3ccccc3)[C@@H]2c2ccc(CO)cc2)cc1", "composite z-score": -0.0477}

Request: Requested read-out: composite z-score. Entry: C=CCC(OC(C)=O)[C@@H]1[C@@H](N(Cc2cc3ccccc3o2)C(=O)c2ccc(C)cc2)c2cc(OCCCO)ccc2N1C(=O)Cc1ccc2ccccc2c1 (stereo not given in full)
Response: -0.057

Request: Requested read-out: composite z-score. Entry: `[N-]=[N+]=Nc1ccccc1[C@@H]1OC(c2ccc(OCCCO)cc2)=N[C@]1(CCS(=O)(=O)c1ccccc1)C(=O)NCCN1CCOCC1`
Response: 0.21

Request: Requested read-out: composite z-score. Entry: `CN(C)C(=O)[C@@]1(Cc2ccccc2N=[N+]=[N-])COC(c2ccc(OCCCO)cc2)=N1`
Response: 0.0648

Request: Requested read-out: composite z-score. Entry: `C=C[C@@H](COC(C)=O)NS(=O)(=O)c1ccc(Br)cc1`
Response: -0.0973

Request: Requested read-out: composite z-score. Entry: `O=C1O[C@@H](c2ccccc2)[C@@H](c2ccccc2)N2[C@@H](c3ccccc3OCCO)[C@]3(C(=O)Nc4ccc(C#CCCO)cc43)[C@@H](C(=O)N3CCN(c4ncccn4)CC3)[C@H]12`
Response: 0.176
